These data points were gathered from ChEMBL document CHEMBL1124644.

- System Tested: Glutamate NMDA receptor (Rattus norvegicus) (UniProt P35439+Q00959+Q00960+Q00961+Q62645+Q8VHN2+Q9R1M7)
- Protocol Notes: N-methyl-D-aspartate glutamate receptor antagonistic ability of 100 uM of compound was assessed from the ability to displace [3H]CPP29,30 from rat cortical membranes.
- Format: cell membranes
- Run Conditions: Membrane
Endpoint Label: I (%)

[[record]]
molecule = "NC(Cc1cccc(CCP(=O)(O)O)c1)C(=O)O (centres undefined)"
endpoint_label = "I"
measure_unit = "%"
numeric_readout = 19

[[record]]
molecule = "NC(Cc1ccccc1P(=O)(O)O)C(=O)O (centres undefined)"
endpoint_label = "I"
measure_unit = "%"
numeric_readout = 3

[[record]]
molecule = "NC(CCc1ccccc1CP(=O)(O)O)C(=O)O (centres undefined)"
endpoint_label = "I"
measure_unit = "%"
numeric_readout = 54

[[record]]
molecule = "NC(Cc1cccc(P(=O)(O)O)c1)C(=O)O (centres undefined)"
endpoint_label = "I"
measure_unit = "%"
numeric_readout = 15

